# measurement-target: Kappa-type opioid receptor (Homo sapiens, UniProt P41145)
# Sequence (P41145 whole entry): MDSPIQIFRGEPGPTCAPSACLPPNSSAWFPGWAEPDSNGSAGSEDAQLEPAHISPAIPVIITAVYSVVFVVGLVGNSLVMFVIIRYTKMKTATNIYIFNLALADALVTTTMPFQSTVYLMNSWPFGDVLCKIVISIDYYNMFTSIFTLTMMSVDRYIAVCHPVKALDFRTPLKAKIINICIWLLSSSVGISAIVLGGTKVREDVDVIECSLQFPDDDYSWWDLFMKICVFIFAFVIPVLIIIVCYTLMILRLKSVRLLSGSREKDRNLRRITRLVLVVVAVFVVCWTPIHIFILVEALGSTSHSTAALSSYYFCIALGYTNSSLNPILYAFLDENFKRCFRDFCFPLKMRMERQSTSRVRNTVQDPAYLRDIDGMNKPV
Where a SMILES comes first, the peptide text is derived from it.
property-measured: Ki (nM)
I only need the number, in nM, no unit after it.

• N=C(N)NCCC[C@H](NC(=O)[C@H](CCCNC(=N)N)NC(=O)[C@@H]1CSSC[C@H](NC(=O)[C@@H](N)CC(N)=O)C(=O)N1)C(=O)N[C@@H](CCC(N)=O)C(=O)N[C@@H](CC1CCCCC1)C(=O)N[C@H]1CSSC[C@@H](C(N)=O)NC1=O (HELM PEPTIDE1{N.C.C.R.R.Q.[Cha].C.C.[am]}$PEPTIDE1,PEPTIDE1,2:R3-3:R3|PEPTIDE1,PEPTIDE1,8:R3-9:R3$$$V2.0) = 1.3

Next:
GET /value?item= `COc1ccc(C(=O)N2CCC[C@H]2C(=O)N[C@H](CCCNC(=N)N)C(=O)N[C@H](CCCNC(=N)N)C(=O)N[C@@H](CCC(N)=O)C(=O)N[C@@H](CS)C(=O)N[C@@H](CC2CCCCC2)C(=O)N[C@H]2CSSC[C@@H](C(N)=O)NC2=O)cc1` &field=Ki returns 0.59

---

# measurement-target: Kappa-type opioid receptor (Homo sapiens, UniProt P41145)
# test-protocol: Displacement of [3H]U69593 from human kappa opioid receptor expressed in CHO-K1 cells incubated for 1 hr by 1450 microbeta scintillation counter analysis
# Format: cell-based
Overview of reported Ki across a group of molecules:
I only need the number, in nM, no unit after it.

GET /value?item= `CC1(C)SSC[C@@H](C(N)=O)NC(=O)[C@H]1NC(=O)[C@H](CC1CCCCC1)NC(=O)[C@H](CCC(N)=O)NC(=O)[C@@H](CCCNC(=N)N)NC(=O)[C@@H](CCCNC(=N)N)NC(=O)[C@@H]1CCC(=O)N1` &field=Ki returns 1.3

GET /value?item= `N=C(N)NCCC[C@@H](NC(=O)c1cc2ccccc2cc1N)C(=O)N[C@H](CCCNC(=N)N)C(=O)N[C@@H](CCC(N)=O)C(=O)N[C@@H](CC1CCCCC1)C(=O)N[C@H]1CSSC[C@@H](C(N)=O)NC1=O` &field=Ki returns 0.64

GET /value?item= `N=C(N)NCCC[C@@H](NC(=O)[C@@H](CCCNC(=N)N)NC(=O)[C@@H]1CCCN1C(=O)c1ccccc1)C(=O)N[C@@H](CCC(N)=O)C(=O)N[C@@H](CC1CCCCC1)C(=O)N[C@H]1CSSC[C@@H](C(N)=O)NC1=O` &field=Ki returns 0.25

---

Where a SMILES comes first, the peptide text is derived from it.
Kappa-type opioid receptor (Homo sapiens, UniProt P41145) data, read-out pKi
Expect pKi as a plain number equal to -log10 of the molar concentration.

Tested on Kappa-type opioid receptor (Homo sapiens, UniProt P41145): `N=C(N)NCCC[C@@H](NC(=O)[C@@H](CCCNC(=N)N)NC(=O)[C@@H]1CCCN1C(=O)c1ccc([N+](=O)[O-])cc1)C(=O)N[C@@H](CCC(N)=O)C(=O)N[C@@H](CS)C(=O)N[C@@H](CC1CCCCC1)C(=O)N[C@H]1CSSC[C@@H](C(N)=O)NC1=O` . Observed pKi: 8.66

Tested on Kappa-type opioid receptor (Homo sapiens, UniProt P41145): `N=C(N)NCCC[C@@H](NC(=O)[C@@H]1CCC(=O)N1)C(=O)N[C@H](CCCNC(=N)N)C(=O)N[C@@H](CCC(N)=O)C(=O)N[C@@H](CC1CCCCC1)C(=O)N[C@H]1CCSSC[C@@H](C(N)=O)NC1=O` . Observed pKi: 6.11

Tested on Kappa-type opioid receptor (Homo sapiens, UniProt P41145): CC[C@H](C)[C@H](NC(=O)[C@H](CCC(N)=O)NC(=O)[C@H](Cc1c[nH]cn1)NC(=O)[C@H](CCCNC(=N)N)NC(=O)[C@@H]1CSSC[C@H](NC(=O)[C@@H](N)CC(N)=O)C(=O)N1)C(=O)N[C@H]1CSSC[C@@H](C(N)=O)NC1=O (HELM PEPTIDE1{N.C.C.R.H.Q.I.C.C.[am]}$PEPTIDE1,PEPTIDE1,2:R3-3:R3|PEPTIDE1,PEPTIDE1,8:R3-9:R3$$$V2.0) . Observed pKi: 7.07

Tested on Kappa-type opioid receptor (Homo sapiens, UniProt P41145): `C[C@H](NC(=O)[C@@H](CCCNC(=N)N)NC(=O)[C@@H](CCCNC(=N)N)NC(=O)[C@@H]1CCCN1C(=O)c1ccccc1)C(=O)N[C@@H](CC1CCCCC1)C(=O)N[C@H]1CSSC[C@@H](C(N)=O)NC1=O` . Observed pKi: 9.54

---

# measurement-target: Kappa-type opioid receptor (Homo sapiens, UniProt P41145)
# test-protocol: Displacement of [3H]U69593 from human kappa opioid receptor expressed in CHO-K1 cells incubated for 1 hr by 1450 microbeta scintillation counter analysis
# Format: cell-based
Where a SMILES comes first, the peptide text is derived from it.
Just a reminder that ties go to 0.0: only Ki strictly below 4 nM counts as 1.0.

Past entries and their recorded results:
* CC[C@H](C)[C@H](NC(=O)[C@H](CCC(N)=O)NC(=O)[C@H](CCCNC(=N)N)NC(=O)[C@H](CCCNC(=N)N)NC(=O)[C@@H]1CSSC[C@H](NC(=O)[C@@H](N)Cc2ccc(O)cc2)C(=O)N1)C(=O)N[C@H]1CSSC[C@@H](C(N)=O)NC1=O (HELM PEPTIDE1{Y.C.C.R.R.Q.I.C.C.[am]}$PEPTIDE1,PEPTIDE1,2:R3-3:R3|PEPTIDE1,PEPTIDE1,8:R3-9:R3$$$V2.0) | 0.0
* CC[C@H](C)[C@H](NC(=O)[C@H](CCCN=C(N)N)NC(=O)[C@H](CCCN=C(N)N)NC(=O)[C@H](CC(C)C)NC(=O)[C@H](Cc1ccccc1)NC(=O)CNC(=O)CNC(=O)[C@@H](N)Cc1ccc(O)cc1)C(=O)N[C@@H](CCCN=C(N)N)C(=O)N1CCC[C@H]1C(=O)N[C@@H](CCCCN)C(=O)N[C@@H](CC(C)C)C(=O)N[C@@H](CCCCN)C(N)=O | 1.0
* N=C(N)NCCC[C@@H](NC(=O)[C@@H](CCCNC(=N)N)NC(=O)[C@@H]1CCCN1C(=O)c1ccccc1)C(=O)NCC(=O)N[C@@H](CC1CCCCC1)C(=O)N[C@H]1CSSC[C@@H](C(N)=O)NC1=O | 1.0

# input Lab log: compare recorded Ki with 4 nM; is it strictly lower for `N=C(N)NCCC[C@@H](NC(=O)[C@@H](CCCNC(=N)N)NC(=O)[C@@H]1CCCN1C(=O)c1ccccc1)C(=O)N[C@@H](CCC(N)=O)C(=O)N[C@@H](CC1CCCCC1)C(=O)N[C@H]1CSSCCN(CC(N)=O)C1=O` ?
# output 0.0

# input Lab log: compare recorded Ki with 4 nM; is it strictly lower for `N=C(N)NCCC[C@@H](NC(=O)[C@@H](CCCNC(=N)N)NC(=O)[C@@H]1CCCN1C(=O)c1ccc(Cl)c(Cl)c1)C(=O)N[C@@H](CCC(N)=O)C(=O)N[C@@H](CS)C(=O)N[C@@H](CC1CCCCC1)C(=O)N[C@H]1CSSC[C@@H](C(N)=O)NC1=O` ?
# output 1.0

# input Lab log: compare recorded Ki with 4 nM; is it strictly lower for `N=C(N)NCCC[C@@H](NC(=O)[C@@H](CCCNC(=N)N)NC(=O)[C@@H]1CCCN1C(=O)c1ccccc1)C(=O)N[C@@H](Cc1ccccc1)C(=O)N[C@@H](CC1CCCCC1)C(=O)N[C@H]1CSSC[C@@H](C(N)=O)NC1=O` ?
# output 1.0

---

Overview of reported Ratio Ki across a group of molecules:
# Species on record: Homo sapiens
# test-protocol: Selectivity ratio, ratio of Ki for human KOR to Ki for human NOP
Where a SMILES comes first, the peptide text is derived from it.

These solved cases illustrate the format of a correct answer.
* CC[C@H](C)[C@H](NC(=O)[C@H](CCC(N)=O)NC(=O)[C@H](CCCNC(=N)N)NC(=O)[C@H](CCCNC(=N)N)NC(=O)[C@@H]1CSSC[C@H](NC(=O)[C@@H](N)CC(N)=O)C(=O)N1)C(=O)N[C@H]1CSSC[C@@H](C(N)=O)NC1=O (HELM PEPTIDE1{N.C.C.R.R.Q.I.C.C.[am]}$PEPTIDE1,PEPTIDE1,2:R3-3:R3|PEPTIDE1,PEPTIDE1,8:R3-9:R3$$$V2.0) | > 630
* CC[C@H](C)[C@H](NC(=O)[C@H](CCC(N)=O)NC(=O)[C@H](CCCNC(=N)N)NC(=O)[C@H](CCCNC(=N)N)NC(=O)[C@@H]1CSSC[C@H](NC(=O)[C@@H]2CCC(=O)N2)C(=O)N1)C(=O)N[C@H]1CSSC[C@@H](C(N)=O)NC1=O (HELM PEPTIDE1{[Glp].C.C.R.R.Q.I.C.C.[am]}$PEPTIDE1,PEPTIDE1,2:R3-3:R3|PEPTIDE1,PEPTIDE1,8:R3-9:R3$$$V2.0) | > 630
* N=C(N)NCCC[C@H](NC(=O)[C@@H]1CCC(=O)N1)C(=O)N[C@@H](CCCNC(=N)N)C(=O)N[C@@H](CCC(N)=O)C(=O)N[C@@H](CC1CCCCC1)C(=O)N[C@H]1CSSC[C@@H](C(N)=O)NC1=O | > 10000

Next:
GET /value?item= `CC1(C)SSC[C@@H](C(N)=O)NC(=O)[C@H]1NC(=O)[C@H](CC1CCCCC1)NC(=O)[C@H](CCC(N)=O)NC(=O)[C@@H](CCCNC(=N)N)NC(=O)[C@@H](CCCNC(=N)N)NC(=O)[C@@H]1CCC(=O)N1` &field=Ratio Ki returns > 25000

Provenance of the data: ChEMBL document CHEMBL5252514
